Cited source for all entries: patent US5670493A

Below: a set of entries, each annotated with reported CC50 at 72 h.
Assay: Cytotoxicity, PAEC (microculture tetrazolium assay)
Type: cell-based
Settings: pig, aorta endothelial cells paec, 3 days, read-out: Cytotoxicity PAEC IC50
Respond with the bare value in µM.

{"Molecule": "O=C(Nc1ccc(P(=O)(O)O)cc1)c1ccc(Cc2ccc(C(=O)Nc3ccc(P(=O)(O)O)cc3)cc2)cc1", "Units Of Measure": "µM", "CC50 at 72 h": 429}

For the next question, use this molecule.
The molecule listed as Cc1ccc(C(=O)Nc2ccc(S(=O)(=O)O)c3cc(S(=O)(=O)O)cc(S(=O)(=O)O)c23)cc1NC(=O)c1cccc(NC(=O)Nc2cccc(C(=O)Nc3cc(C(=O)Nc4ccc(S(=O)(=O)O)c5cc(S(=O)(=O)O)cc(S(=O)(=O)O)c45)ccc3C)c2)c1 [Suramin, suramin, reference compound] has a reported CC50 at 72 h of 202

###

Assay: Cytotoxicity, L1210 (microculture tetrazolium assay)
Format: cell-based, murine
Conditions: mouse, l1210 cells; L1210, 2 days; read-out: Cytotoxicity L 1210 IC50
Measured Endpoint: CC50 at 48 h

The compound listed as `O=C(CCCCCCCCC(=O)Nc1ccc(P(=O)(O)O)cc1)Nc1ccc(P(=O)(O)O)cc1` has a reported CC50 at 48 h of > 500 µM

The compound listed as Cc1ccc(C(=O)Nc2ccc(S(=O)(=O)O)c3cc(S(=O)(=O)O)cc(S(=O)(=O)O)c23)cc1NC(=O)c1cccc(NC(=O)Nc2cccc(C(=O)Nc3cc(C(=O)Nc4ccc(S(=O)(=O)O)c5cc(S(=O)(=O)O)cc(S(=O)(=O)O)c45)ccc3C)c2)c1 [Suramin, suramin, reference compound] has a reported CC50 at 48 h of 131 µM

The compound listed as `O=C(Nc1ccc(P(=O)(O)O)cc1)c1ccc(Cc2ccc(C(=O)Nc3ccc(P(=O)(O)O)cc3)cc2)cc1` has a reported CC50 at 48 h of > 500 µM

###

System: chick embryo chorioallantoic membrane
Experiment: Inhibition of the neovascularization of the chick embryo chorioallantoic membrane (CAM test)
Format: in vivo
Settings: Gallus gallus; dose 125 μM; % of eggs with avascular zone > 4 mm, 48 hours
Below: a set of entries, each annotated with reported inhibition at 125 µM.
Respond with the bare value in %.

In the examples that follow, each entry is paired with its recorded inhibition at 125 µM.
{"Sample Smiles": "O=C(CCCCCCCCCCCCCC(=O)Nc1ccc(P(=O)(O)O)cc1)Nc1ccc(P(=O)(O)O)cc1", "inhibition at 125 µM, %": 90}
{"Sample Smiles": "O=C(C=Cc1ccc(C=CC(=O)Nc2ccc(P(=O)(O)O)cc2)s1)Nc1ccc(P(=O)(O)O)cc1", "inhibition at 125 µM, %": 75}
{"Sample Smiles": "O=C(CCCCCCCCCCC(=O)Nc1ccc(P(=O)(O)O)cc1)Nc1ccc(P(=O)(O)O)cc1", "inhibition at 125 µM, %": 68}

For the next question, use this compound.
With chick embryo chorioallantoic membrane as the test system, `O=C(C=Cc1ccc2cc(C=CC(=O)Nc3ccc(P(=O)(O)O)cc3)ccc2c1)Nc1ccc(P(=O)(O)O)cc1` showed inhibition at 125 µM of 68

###

Test system: chick embryo chorioallantoic membrane
Assay: Inhibition of the neovascularization of the chick embryo chorioallantoic membrane (CAM test)
Format: in vivo
Conditions: Gallus gallus; dose 125 μM; % of eggs with avascular zone > 4 mm, 48 hours
Measured Endpoint: inhibition at 125 µM (%)
Respond with the bare value in %.

In the examples that follow, each entry is paired with its recorded inhibition at 125 µM.
{"Molecule": "O=C(C=C[C@H]1CC[C@H](C=CC(=O)Nc2ccc(P(=O)(O)O)cc2)CC1)Nc1ccc(P(=O)(O)O)cc1", "Units Of Measure": "%", "Numeric Readout": 89}
{"Molecule": "O=C(CCCCCCCCCCCCC(=O)Nc1ccc(P(=O)(O)O)cc1)Nc1ccc(P(=O)(O)O)cc1", "Units Of Measure": "%", "Numeric Readout": 56}
{"Molecule": "O=C(CCCCCCCCC(=O)Nc1ccc(P(=O)(O)O)cc1)Nc1ccc(P(=O)(O)O)cc1", "Units Of Measure": "%", "Numeric Readout": 64}
{"Molecule": "O=C(C=Cc1ccc(C=CC(=O)Nc2ccc(P(=O)(O)O)cc2)cc1)Nc1ccc(P(=O)(O)O)cc1", "Units Of Measure": "%", "Numeric Readout": 82}
{"Molecule": "Cc1ccc(C(=O)Nc2ccc(S(=O)(=O)O)c3cc(S(=O)(=O)O)cc(S(=O)(=O)O)c23)cc1NC(=O)c1cccc(NC(=O)Nc2cccc(C(=O)Nc3cc(C(=O)Nc4ccc(S(=O)(=O)O)c5cc(S(=O)(=O)O)cc(S(=O)(=O)O)c45)ccc3C)c2)c1 [Suramin, suramin, reference compound]", "Units Of Measure": "%", "Numeric Readout": 20}
{"Molecule": "O=C(CC[C@H]1CC[C@H](CCC(=O)Nc2ccc(P(=O)(O)O)cc2)CC1)Nc1ccc(P(=O)(O)O)cc1", "Units Of Measure": "%", "Numeric Readout": 80}

The molecule listed as `O=C(Nc1ccc(P(=O)(O)O)cc1)c1ccc(Cc2ccc(C(=O)Nc3ccc(P(=O)(O)O)cc3)cc2)cc1` has a reported inhibition at 125 µM of 65

The molecule listed as `O=C(/C=C/C=C/c1ccc(/C=C/C=C/C(=O)Nc2ccc(P(=O)(O)O)cc2)cc1)Nc1ccc(P(=O)(O)O)cc1` has a reported inhibition at 125 µM of 93

The molecule listed as `O=C(C=Cc1ccc(C=CC(=O)Nc2ccc(P(=O)(O)O)cc2)c2ccccc12)Nc1ccc(P(=O)(O)O)cc1` has a reported inhibition at 125 µM of 80
